src = the RNAGym collection of RNA variant scans (doi:10.1073/pnas.2313332121)

B1: TPR t1 (parent)
chain: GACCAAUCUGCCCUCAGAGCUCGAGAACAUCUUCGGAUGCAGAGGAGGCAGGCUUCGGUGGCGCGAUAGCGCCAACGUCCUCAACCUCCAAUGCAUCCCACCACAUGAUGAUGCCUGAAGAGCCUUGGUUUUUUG

- Variants of: B1
- Protocol Description: polymerase ribozyme fitness, log enrichment relative to wild type (log ratio); higher = more active; in vitro selection for triplet polymerase activity
Give polymerase ribozyme fitness (log ratio) for every item shown.
One number for each entry.

These solved cases illustrate the format of a correct answer.
- Variant Designation: "G17A C123U"
  polymerase ribozyme fitness (log ratio): -2.01
- Variant Designation: "C3A G39A G113A C124U"
  polymerase ribozyme fitness (log ratio): -3.14
- Variant Designation: "C49A G71U"
  polymerase ribozyme fitness (log ratio): -0.754

Provide reported polymerase ribozyme fitness (log ratio) for each item, in the same order as listed.
1. C15U A95U
2. A46G U59A
3. C15U G63C U129C
4. G58A U59C
5. C56U C80A C114U
6. C40G C56U A100U C101G
7. G47A G71C
8. G69U U132A

Data returned:
1. -2.49
2. -0.58
3. -2
4. -0.583
5. -4.51
6. -2.81
7. -1.56
8. 0.176
